FYI, the data here is from patent US20260034119A1.

biological target: 5-HT2A (Homo sapiens); assay: cell-based; design: expressed in transfected cells; host or cells: HEK293-T; settings: read-out: 5-HT2A (IP1) Emax (%5-HT)
Sequence (P28223 whole entry): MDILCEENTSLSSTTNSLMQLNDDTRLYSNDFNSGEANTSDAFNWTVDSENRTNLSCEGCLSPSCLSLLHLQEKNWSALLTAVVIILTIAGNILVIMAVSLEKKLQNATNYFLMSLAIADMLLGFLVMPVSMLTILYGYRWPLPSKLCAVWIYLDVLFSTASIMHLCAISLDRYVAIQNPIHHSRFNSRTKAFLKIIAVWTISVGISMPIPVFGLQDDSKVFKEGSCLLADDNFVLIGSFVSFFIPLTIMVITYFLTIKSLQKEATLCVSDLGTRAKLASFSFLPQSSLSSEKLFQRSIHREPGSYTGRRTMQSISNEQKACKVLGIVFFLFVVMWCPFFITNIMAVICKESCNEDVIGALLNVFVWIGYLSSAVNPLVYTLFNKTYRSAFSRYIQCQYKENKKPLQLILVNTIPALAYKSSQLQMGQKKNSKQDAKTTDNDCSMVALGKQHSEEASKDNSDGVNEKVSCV
// values below are reported Emax
testReadout: Emax (%)

• CCCN(C)CCc1c[nH]c2ccc(OC)c(F)c12 = 106
• CCCN(CCC)CCc1c[nH]c2ccc(OC)c(F)c12 = 100
• CCCN(C)CCc1c[nH]c2ccc(OC)cc12 = 89
• CCN(C)CCc1c[nH]c2ccc(OC)c(F)c12 = 90
• CCCN(CCC)CCc1c[nH]c2ccc(OC)cc12 = 94
• CCN(C)CCc1c[nH]c2ccc(OC)cc12 = 107

----------
The entries below are paired with their reported pEC50.
target: 5-HT1A N386V (Homo sapiens, UniProt P08908, N386V); construct: expressed in transfected cells; host or cells: HEK293-T; assay: Gi1 BRET at mutant 5-HT1A N386V; type: cell-based
pEC50: −log10 of the molar value.
testReadout: pEC50

* COc1ccc2[nH]cc(CCN(C)C)c2c1F | 8.43
* COc1ccc2[nH]cc(CCN3CCCC3)c2c1 | 7.60

----------
experiment: Mouse brain tissue binding; assay type: in vitro ADME; conditions: mouse, brain tissue, replicate R1, read-out: % Bound R1 (converted)
testReadout: fraction unbound

• COc1ccc2[nH]cc(CCN3CCCC3)c2c1F = 0.157

----------
target: UniProt:P41595; experiment: IP1 functional assay 5-HT2B; type: cell-based; settings: Table 3; read-out: 5-HT2B (IP1) EC50
Sequence (P41595 whole entry, species assumed): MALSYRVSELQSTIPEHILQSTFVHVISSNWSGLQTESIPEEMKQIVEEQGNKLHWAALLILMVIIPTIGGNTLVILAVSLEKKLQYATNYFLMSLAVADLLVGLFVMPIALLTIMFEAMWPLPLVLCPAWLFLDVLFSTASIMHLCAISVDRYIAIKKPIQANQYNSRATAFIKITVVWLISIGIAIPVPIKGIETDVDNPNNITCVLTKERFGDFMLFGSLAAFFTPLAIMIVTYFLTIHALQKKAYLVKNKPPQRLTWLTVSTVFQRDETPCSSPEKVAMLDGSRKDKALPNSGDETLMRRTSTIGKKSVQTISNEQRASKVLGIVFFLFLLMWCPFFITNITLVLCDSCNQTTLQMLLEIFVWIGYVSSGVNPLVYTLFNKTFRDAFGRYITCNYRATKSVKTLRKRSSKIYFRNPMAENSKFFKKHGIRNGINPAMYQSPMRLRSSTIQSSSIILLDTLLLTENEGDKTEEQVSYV
testReadout: EC50 (nM)

• CCN(C)CCc1c[nH]c2ccc(OC)cc12 = 130

----------
experiment: Human plasma protein binding; type: in vitro ADME; settings: human, plasma, replicate R1, read-out: % Bound R1 (converted)
testReadout: fraction unbound

• COc1ccc2[nH]cc(CCN3CCCC3)c2c1F [4-F, 5-MeO-PyrT] = 0.778

----------
Biological target: 5-HT1A A365N (Homo sapiens, UniProt P08908, A365N)
Construct: expressed in transfected cells; host or cells: HEK293-T
Sequence (P08908 1-422 A365N): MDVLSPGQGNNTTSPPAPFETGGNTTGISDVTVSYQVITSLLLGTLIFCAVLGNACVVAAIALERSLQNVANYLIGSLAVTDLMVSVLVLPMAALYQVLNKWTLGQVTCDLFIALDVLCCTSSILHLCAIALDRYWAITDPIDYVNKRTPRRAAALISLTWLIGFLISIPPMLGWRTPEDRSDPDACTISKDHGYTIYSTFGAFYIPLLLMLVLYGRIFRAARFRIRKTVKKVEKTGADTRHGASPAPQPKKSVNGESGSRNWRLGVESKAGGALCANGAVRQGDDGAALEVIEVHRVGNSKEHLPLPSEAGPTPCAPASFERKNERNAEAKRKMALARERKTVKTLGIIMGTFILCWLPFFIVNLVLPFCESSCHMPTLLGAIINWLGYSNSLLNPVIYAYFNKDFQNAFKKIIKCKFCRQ
Experiment: Gi1 BRET at mutant 5-HT1A A365N
Format: cell-based
Conditions: EC50 (nM), Gi1 BRET, 5-HT1A A365N^6.55
testReadout: EC50 (nM)

* COc1ccc2[nH]cc(CCN3CCCC3)c2c1 | 28.9
* CSc1ccc2[nH]cc(CCN(C)C)c2c1 | 30.5
* CN(C)CCc1c[nH]c2ccc(O)c(F)c12 | 5.68
* CSc1ccc2[nH]cc(CCN3CCCC3)c2c1 | 5.08
